target: T1, cynomolgus monkey BCMA (cynomolgus monkey, UniProt A0A2K5UD97 1-53); assay: SPR, IgG on chip, cyBCMA analyte, 37C
T1 construct: Soluble analyte in SPR; construct not described; also called cyBCMA; Cyno BCMA
T1 sequence (A0A2K5UD97 entry or part of it): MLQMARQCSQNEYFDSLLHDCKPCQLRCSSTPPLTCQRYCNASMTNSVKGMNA
Overview of reported T½ across a group of binders:
Measurement Name: T½ (min)

INSERT INTO measurements (binder, measurement_name, numeric_readout) VALUES
  ('L3.PY/L3.KY/H2.QR (antibody, V domains shown, IgG) VH: EVQLLESGGGLVQPGGSLRLSCAASGFTFGSYAMTWVRQAPGKGLEWVSAISGSGGNTFYADQRKGRFTISRDNSKNTLYLQMNSLRAEDTAVYYCARVSPIASGMDYWGQGTLVTVSS VL: EIVLTQSPGTLSLSPGERATLSCRASQSVSSSYLAWYQQKPGQAPRLLIYGASSRATGIPDRFSGSGSGTDFTLTISRLEPEDFAVYYCKYYPYPPSFTFGQGTKVEIK', 'T½', 1.49),
  ('L3.PY/L1.FF/H2.HA (antibody, V domains shown, IgG) VH: EVQLLESGGGLVQPGGSLRLSCAASGFTFGSYAMTWVRQAPGKGLEWVSAISHAGGNTFYADSVKGRFTISRDNSKNTLYLQMNSLRAEDTAVYYCARVSPIASGMDYWGQGTLVTVSS VL: EIVLTQSPGTLSLSPGERATLSCRASQSVSSFFLAWYQQKPGQAPRLLIYGASSRATGIPDRFSGSGSGTDFTLTISRLEPEDFAVYYCQHYPYPPSFTFGQGTKVEIK', 'T½', 2.77),
  ('L3.PY/L3.KF/H2.QL (antibody, V domains shown, IgG) VH: EVQLLESGGGLVQPGGSLRLSCAASGFTFGSYAMTWVRQAPGKGLEWVSAISGSGGNTFYADQLKGRFTISRDNSKNTLYLQMNSLRAEDTAVYYCARVSPIASGMDYWGQGTLVTVSS VL: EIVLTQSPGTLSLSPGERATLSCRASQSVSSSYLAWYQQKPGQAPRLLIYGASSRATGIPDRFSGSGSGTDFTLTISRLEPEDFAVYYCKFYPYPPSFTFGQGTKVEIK', 'T½', 3.73);
